Reported GI50 values for the following compounds.
# System: NCI-H226
# Assay Info: NCI tumour cell line growth inhibition, 48 h
Calls of active or inactive are those of the source. Cut-off read from the data, not from the text of the source: active = GI50 up to about 1.1 µM and inactive = higher.

- Compound: "C/C(=N/Nc1nc(C)cc(O)n1)C(=O)O"
  Tgt: "NCI-H226"
  Assay Result: "> 100 µM (inactive)"
- Compound: "Nc1nc(N)c(/N=N/c2ccc(C(=O)O)c(O)c2)c(N)n1"
  Tgt: "NCI-H226"
  Assay Result: "> 100 µM (inactive)"
- Compound: "CC[C@@]1(N(C)C)C(=O)OCc2c1cc1n(c2=O)Cc2cc3ccccc3nc2-1"
  Tgt: "NCI-H226"
  Assay Result: "22.4 µM (inactive)"
- Compound: "CC(C)(C)c1ccc(OCCOc2ccc(C(C)(C)C)cc2NC=O)c(NC=O)c1"
  Tgt: "NCI-H226"
  Assay Result: "10.8 µM (inactive)"
- Compound: "CC1(C)CCCOc2cccc(c2)OCCCC(C)(C)C1=O"
  Tgt: "NCI-H226"
  Assay Result: "25.5 µM (inactive)"

Query :: GI50 lookup needed for `COCCOCCOC1=C(Cl)C(=O)c2c(O)ccc(O)c2C1=O` , thanks.
Result :: 18.1 µM (inactive)

Query :: GI50 lookup needed for C[C@]12CC(c3ccccc3O1)C(C(N)=O)C(=O)N2 (some centres not stated) , thanks.
Result :: > 100 µM (inactive)

Query :: GI50 lookup needed for `S=C1Cc2cc3ccccc3nc2-c2ccccc2N1` , thanks.
Result :: 16.1 µM (inactive)

Query :: GI50 lookup needed for `C/C(=N/CC(=O)O)c1ccccc1` , thanks.
Result :: > 100 µM (inactive)

Query :: GI50 lookup needed for `Oc1cc(O)c2c(-c3c(O)c(-c4ccc(O)c(O)c4)[o+]c4cc(O)cc(O)c34)c(O)c(-c3ccc(O)c(O)c3)[o+]c2c1` , thanks.
Result :: 20.1 µM (inactive)

Query :: GI50 lookup needed for `O=C(O)/C=C/C(=O)Nc1nc[nH]n1` , thanks.
Result :: > 100 µM (inactive)

Query :: GI50 lookup needed for CCOC(=O)C(CC(C)C)NC(=O)C(Cc1ccc(N(CCCl)CCCl)cc1)NC(C)=O (configuration not stated) , thanks.
Result :: 14.4 µM (inactive)

----------
# System: OVCAR-4
# Assay Info: NCI tumour cell line growth inhibition, 48 h
Activity calls are given as the source filed them. Cut-off read from the data, not from the text of the source: active = GI50 up to about 1.1 µM and inactive = higher.
Can you answer with just one of these options? label 1 (active), label 0 (inactive)

Some solved entries appear below for comparison.
- Molecule: "Oc1cc(-c2ccccn2)nc2cccc(F)c12"
  Class Name: "label 0"
- Molecule: "ClC1CCC2OOC1O2 (stereo not given)"
  Class Name: "label 0"
- Molecule: "COC(=O)CCc1ccc2c(c1)[C@H](C(=O)OC)[C@@H](c1ccc(O)cc1)O2"
  Class Name: "label 0"
- Molecule: "CN1CC=C(c2c(N)nc(N)[nH]c2=O)CC1"
  Class Name: "label 0"
- Molecule: "CCCc1cc(-c2ccc(-c3cc(CCC)c(C=O)[nH]3)s2)[nH]c1C=O"
  Class Name: "label 0"

Query :: Each molecule tested received a call. Report the one for O=C(COc1ccccc1Cl)N1N=C(c2ccccc2)CC1(O)c1ccccc1 (stereo not given) .
Result :: label 0

Query :: Each molecule tested received a call. Report the one for `COc1ccc2c(c1)[n+]([O-])c(/C(C)=N/NC(N)=S)c(C)[n+]2[O-]` .
Result :: label 0

Query :: Each molecule tested received a call. Report the one for `O=C1C(OC(=O)c2ccccc2)=C(c2ccc(O)cc2)C(=O)C(OC(=O)c2ccccc2)=C1c1ccc(O)cc1` .
Result :: label 0

Query :: Each molecule tested received a call. Report the one for `C/C(=N/NC(=S)N(C)C)c1ccccc1O` .
Result :: label 0

Query :: Each molecule tested received a call. Report the one for `O=c1[nH]nc(Cc2ccccc2)n1/N=C/c1ccc([N+](=O)[O-])cc1` .
Result :: label 0

Query :: Each molecule tested received a call. Report the one for NC(Cc1cccc([N+](=O)[O-])c1)C(=O)O (stereo not given) .
Result :: label 0

Query :: Each molecule tested received a call. Report the one for `CCCCCCSC[C@H](OC(C)=O)[C@@H](OC(C)=O)[C@@H](OC(C)=O)[C@@H](COC(C)=O)OC(C)=O` .
Result :: label 0

Query :: Each molecule tested received a call. Report the one for `COCCOCCOC1=C(Cl)C(=O)c2c(O)ccc(O)c2C1=O` .
Result :: label 0

Query :: Each molecule tested received a call. Report the one for `Clc1ccc(/C=N/C23CC4CC(CC(C4)C2)C3)cc1Cl` .
Result :: label 0

Query :: Each molecule tested received a call. Report the one for `OCCN(CCO)c1ncnc2[nH]cnc12` .
Result :: label 0

Query :: Each molecule tested received a call. Report the one for COC(=O)C1(Cc2ccccc2)Cc2ccc3c(c2C1=O)CCC3 (stereo not given) .
Result :: label 0

Query :: Each molecule tested received a call. Report the one for `CCOC1=C/C(=N\Nc2ccc([N+](=O)[O-])cc2)CCC1` .
Result :: label 0

Query :: Each molecule tested received a call. Report the one for `CCCNC(=O)Nc1c([N+](=O)[O-])cc(C(F)(F)F)cc1[N+](=O)[O-]` .
Result :: label 0

Query :: Each molecule tested received a call. Report the one for COCCOCCOCCOc1ccc(C(C#N)N(CCc2ccccc2)C(=O)c2cc(C(=O)N(CCc3ccccc3)C(C#N)c3ccc(OCCOCCOCCOC)cc3)cc(C(=O)N(CCc3ccccc3)C(C#N)c3ccc(OCCOCCOCCOC)cc3)c2)cc1 (stereo not given) .
Result :: label 0

Query :: Each molecule tested received a call. Report the one for `CC(=O)/C(=C/N1CCNC1=S)C(=O)Nc1ccccc1C` .
Result :: label 0

Query :: Each molecule tested received a call. Report the one for `COc1ccc(C(=O)Cc2c(C(=O)c3ccccc3)c3ccccc3n2C(=O)c2ccccc2)cc1` .
Result :: label 0

Query :: Each molecule tested received a call. Report the one for CCCCON1C[C@@H](O)C(O)[C@@H](O)C1 (stereo not given in full) .
Result :: label 0

Query :: Each molecule tested received a call. Report the one for `O=c1c2cc(I)ccc2nc(-c2cccs2)n1/N=C/c1ccccc1` .
Result :: label 0
